OBSERVATION TYPE: melting point

Solved entries (count: 3):
> print(dat)
                                   compound  observed.measurement
1     N#CNC(=Nc1cccnc1)NC1CCN(Cc2ccccc2)CC1         173 to 174 °C
2  CCc1c(C(=O)O)c(CC(=O)O)n(C)c1C(=O)c1ccc(Cl)cc1         211 to 212 °C
3          O=C(O)CNC(=O)COc1nc(F)c(Cl)cc1Cl         155 to 157 °C

Problem: Look up melting point of O=C1CC(c2ccc(Cl)cc2Cl)c2cc(Br)ccc2O1 (stereo unspecified) and report it.
Solution: 117 to 118 °C

Problem: Look up melting point of COc1cc2c(cc1Cl)C(=O)CC(C)O2 (stereo unspecified) and report it.
Solution: 96 to 100 °C

Problem: Look up melting point of `CCc1cccc2c1[nH]c1c2ccc2c(C=O)c[nH]c21` and report it.
Solution: > 250 °C

Problem: Look up melting point of `COc1cccc([C@H]2O[C@H](CC(=O)NCCCCCC(=O)O)C(=O)N(CC(C)(C)CO)c3ccc(Cl)cc32)c1OC` and report it.
Solution: 96 to 98 °C

Problem: Look up melting point of `C=CCN(C(=O)OCc1ccccc1)c1cc(F)c(-c2ccncc2)c(F)c1` and report it.
Solution: 82 to 83 °C

Problem: Look up melting point of `COc1ccc(C2CC(=O)OC(=O)C2)cc1OC` and report it.
Solution: 118 to 120 °C

Problem: Look up melting point of `Nc1nc(NCCOc2ccccc2)nc(-c2cc(Cl)ccc2Cl)n1` and report it.
Solution: 172 to 173 °C

Problem: Look up melting point of `Cc1ccnc(Sc2nc(-c3ccc(Cl)cc3)c(CCC(=O)O)o2)n1` and report it.
Solution: 174 to 175 °C

====

Readings of melting point for the listed compounds

> print(dat)
                                   compound  observation.type  observed.measurement
1      CCCCC(=O)Nc1ccc(Oc2ncc(Cl)cn2)c(C)c1     melting point         146 to 150 °C
2  O=c1[nH]ncc2[nH]c(-c3ccc(OC(F)F)c(OC4CC4)c3)c(Cl)c12     melting point         281 to 283 °C
3  Cc1cc(NC(=O)C2=C(O)CN(C)S(=O)(=O)N2C)no1     melting point         189 to 192 °C
4  Cc1ccccc1C1SCCCN1C(=S)Nc1cccc(Cl)c1 (stereo not given)     melting point         134 to 136 °C
5  COc1cc(Nc2c(C#N)cnc3cc(NCCCC4CCN(C)CC4)c(OC)cc23)c(Cl)cc1Cl     melting point         122 to 124 °C
6    CCCc1c(OCc2ccccc2C(=O)O)ccc(C(C)=O)c1O     melting point         214 to 216 °C

Problem: Look up melting point of `COc1ccc(-c2nc(-c3c[nH]c4ccccc34)[nH]c2-c2ccc(OC)cc2)cc1` and report it.
Solution: 246 °C

Problem: Look up melting point of `CCOC(=O)c1cn(-c2ccccc2)nc1OCc1ccc(OCc2nc(-c3ccco3)oc2C)c(OC)c1` and report it.
Solution: 150 to 151 °C

Problem: Look up melting point of CC1N=C(N2CCN(C)CC2)NN=C1c1ccccc1 (stereo not given) and report it.
Solution: 124 to 125 °C

Problem: Look up melting point of `N#CC(CCN1C2CCC1CC2)(c1ccccc1)c1ccccc1` and report it.
Solution: 79 to 81 °C

Problem: Look up melting point of CC(C)(C)c1cc(-n2nc3ccc(S(=O)c4ccccc4)cc3n2)c(O)c(C(C)(C)C)c1 (stereo not given) and report it.
Solution: 152 to 154 °C

====

Readings of melting point for the listed compounds

Solved entries (count: 5):
> print(dat)
                                   compound  observed.measurement
1    CCOC(=O)c1sc2c(ccc(=O)n2-c2ccccc2)c1Br         202 to 206 °C
2   CCOC(=O)c1c(-c2ccccc2)c2c3ccccc3ccn2c1C         119 to 121 °C
3  CCN1CC(=O)Nc2cc(Nc3ncc(Cl)c(Nc4ccccc4S(=O)(=O)C(C)C)n3)c(OC)cc2C1                175 °C
4  COc1cc2c(cc1Nc1ncc(Cl)c(Nc3ccccc3S(=O)(=O)N3CCCC3)n1)CCN(CCO)CC2                110 °C
5  COc1ccc(Cn2nnnc2C2N3C(=O)C(NC(c4ccccc4)(c4ccccc4)c4ccccc4)C3SC2(C)C)cc1 (centres undefined)         178 to 182 °C

Problem: Look up melting point of COCOCC1Oc2c(OC)cccc2C1=O (centres undefined) and report it.
Solution: 71 to 72 °C

Problem: Look up melting point of `CCC(CC)COc1cccc2nc(C)c(C(=O)O)c(N)c12` and report it.
Solution: 145 to 151 °C

Problem: Look up melting point of `COc1ccc(N2CCOCC2)c2sc(NC(=O)N(C)C3CCCC3)nc12` and report it.
Solution: 110 to 125 °C

Problem: Look up melting point of CC(C)(C)Nc1nc2cc(Cl)c(Cl)cc2n1C1CC(CO)C(O)C1O (centres undefined) and report it.
Solution: 130 to 132 °C

====

OBSERVATION TYPE: melting point

> print(dat)
                        compound  observation.type  observed.measurement
1  COc1cc(CBr)c(Br)cc1OCc1ccccc1     melting point         103 to 105 °C

Problem: Look up melting point of `CCCc1c(C(=O)CC)c2ccc(C(N)=O)cc2n1Cc1ccccc1Cl` and report it.
Solution: 151 to 152 °C

Problem: Look up melting point of `CC(=O)Nc1ccc(C(=O)Nc2c(C)cccc2C)cc1` and report it.
Solution: 293 to 295 °C

Problem: Look up melting point of `CCC(C)(C)NC1=NS(=O)(=O)c2sc(Cl)cc2N1` and report it.
Solution: 359 to 360 °C

Problem: Look up melting point of `CNC(=O)[C@H](C)C[C@H](O)[C@H](CC1CCCCC1)NC(=O)OC(C)(C)C` and report it.
Solution: 144 to 145 °C

Problem: Look up melting point of COC(=O)C1c2ccccc2C2C(=O)NCCN21 (stereo unspecified) and report it.
Solution: 165 to 167 °C

====

Readings of melting point for the listed compounds

Solved entries (count: 6):
> print(dat)
                                   compound  observed.measurement
1         CC(C)(c1cc(Cl)ccc1O)c1cc(Cl)ccc1O                142 °C
2   NC(=O)c1cc([N+](=O)[O-])ccc1C=Cc1ccccc1                270 °C
3                     COC(=O)CC(=O)c1nccn1C         142 to 143 °C
4             CS(=O)(=O)N1CCSc2cccc(Cl)c2C1           85 to 86 °C
5  O=C(Nc1cc(Cl)ncn1)c1ccccc1SSc1ccccc1C(=O)Nc1cc(Cl)ncn1         254 to 256 °C
6                N#Cc1cccc(Oc2ccnc(Cl)c2)n1                114 °C

Problem: Look up melting point of `O=C(NC(=O)c1ccco1)C(=O)Oc1ccc([N+](=O)[O-])cc1` and report it.
Solution: 115 °C

Problem: Look up melting point of Cc1ncc2cc(C(c3ccccc3)n3ccnc3)ccc2n1 (stereo unspecified) and report it.
Solution: 130 °C

Problem: Look up melting point of Cc1ccnc(C(O)c2ccc(N)cc2)c1 (stereo unspecified) and report it.
Solution: 156 to 158 °C

Problem: Look up melting point of `Cn1nc(-c2cnc3[nH]cc(C(=O)NC4CCCC4)c3n2)c2ccc(Cl)cc21` and report it.
Solution: 341 to 343 °C

Problem: Look up melting point of `Cc1cccc(C)c1NC(=O)CC1c2ccccc2Oc2ccccc21` and report it.
Solution: 249 to 250 °C

====

OBSERVATION TYPE: melting point

Solved entries (count: 3):
> print(dat)
                                   compound  observed.measurement
1         CC(C)CCOc1ccc(OCn2cnc(Cl)c2Cl)cc1         105 to 108 °C
2                 NS(=O)(=O)Oc1ccccc1C(=O)O         139 to 140 °C
3  O=C1CC(c2ccccc2)C(c2ccccc2)=NN1C(=O)Nc1ccc(C(F)(F)F)cc1 (configuration not stated)         164 to 166 °C

Problem: Look up melting point of `O=c1[nH]nc2n1-c1ccc(Cl)cc1C(c1ccccc1Cl)=CC2` and report it.
Solution: 250 to 251 °C

Problem: Look up melting point of Cc1cc(C)cc(Sc2c(C(C)C)c(=O)[nH]c(=O)n2CC2=CC(CO)C(CO)C2)c1 (configuration not stated) and report it.
Solution: 136 to 137 °C
